# Test system: HT-29
# TEST_DESCRIPTION: NCI tumour cell line growth inhibition, 48 h
Activity calls are given as the source filed them. Rule as the data show it: active = GI50 up to about 1.1 µM and inactive = higher.
OUTCOME_MEASURE: GI50

MOLECULE: O=S(=O)(O)c1ccc2c(/N=N\c3ccc(F)cc3)c(O)c(S(=O)(=O)O)cc2c1
SYSTEM_NAME: HT-29
OUTCOME_MEASURE: GI50
DATA_VALUE: > 100 µM (inactive)
--
MOLECULE: COc1ccc(/N=N/c2c(N)nn(C)c2N)cc1
SYSTEM_NAME: HT-29
OUTCOME_MEASURE: GI50
DATA_VALUE: > 100 µM (inactive)
--
MOLECULE: O=C(/C=C/c1ccsc1)c1ccc(Cl)cc1
SYSTEM_NAME: HT-29
OUTCOME_MEASURE: GI50
DATA_VALUE: 36.5 µM (inactive)
--
MOLECULE: C[N+](CCCl)(CCCl)Cc1cccc2cccc([N+](=O)[O-])c12
SYSTEM_NAME: HT-29
OUTCOME_MEASURE: GI50
DATA_VALUE: 55.8 µM (inactive)
--
MOLECULE: COP(=O)(OC)C(Cc1c[nH]c2ccccc12)NC(=O)OCc1ccccc1 (stereo unspecified)
SYSTEM_NAME: HT-29
OUTCOME_MEASURE: GI50
DATA_VALUE: > 100 µM (inactive)
--
MOLECULE: O=C1/C(=C/c2ccc(O)cc2)CCCC1CN1CCCCC1 (stereo unspecified)
SYSTEM_NAME: HT-29
OUTCOME_MEASURE: GI50
DATA_VALUE: 2.62 µM (inactive)
--
MOLECULE: COc1ccc(C2(CN(C)C)COc3cc(OC)c(OC)cc3C2=O)cc1OC (stereo unspecified)
SYSTEM_NAME: HT-29
OUTCOME_MEASURE: GI50
DATA_VALUE: 46.7 µM (inactive)
--
MOLECULE: COC1=CC(=O)C2C(C1=O)C(c1ccccc1)[C@H]2C (stereo partly specified)
SYSTEM_NAME: HT-29
OUTCOME_MEASURE: GI50
DATA_VALUE: > 100 µM (inactive)
--
MOLECULE: CC(=O)OC1COC(N2C(=O)C(=O)c3ccccc32)C(OC(C)=O)C1OC(C)=O (stereo unspecified)
SYSTEM_NAME: HT-29
OUTCOME_MEASURE: GI50
DATA_VALUE: > 100 µM (inactive)
--
MOLECULE: COc1cc2c(cc1OCc1ccccc1)NC(=O)[C@@H]1C[C@@H](O)CN1C2=O
SYSTEM_NAME: HT-29
OUTCOME_MEASURE: GI50
DATA_VALUE: > 100 µM (inactive)
--
MOLECULE: COC(=O)/N=[N+](\[O-])C(c1ccccc1)c1ccccc1
SYSTEM_NAME: HT-29
OUTCOME_MEASURE: GI50
DATA_VALUE: > 100 µM (inactive)
